Target: T1, human LAP-TGFB1 Fc fusion (human)
T1 construct: also called human LAP-TGFβ1-Fc; human LAP-TGFβ-Fc isoform 1
T1 sequence (chain, as listed by the source limits assumed): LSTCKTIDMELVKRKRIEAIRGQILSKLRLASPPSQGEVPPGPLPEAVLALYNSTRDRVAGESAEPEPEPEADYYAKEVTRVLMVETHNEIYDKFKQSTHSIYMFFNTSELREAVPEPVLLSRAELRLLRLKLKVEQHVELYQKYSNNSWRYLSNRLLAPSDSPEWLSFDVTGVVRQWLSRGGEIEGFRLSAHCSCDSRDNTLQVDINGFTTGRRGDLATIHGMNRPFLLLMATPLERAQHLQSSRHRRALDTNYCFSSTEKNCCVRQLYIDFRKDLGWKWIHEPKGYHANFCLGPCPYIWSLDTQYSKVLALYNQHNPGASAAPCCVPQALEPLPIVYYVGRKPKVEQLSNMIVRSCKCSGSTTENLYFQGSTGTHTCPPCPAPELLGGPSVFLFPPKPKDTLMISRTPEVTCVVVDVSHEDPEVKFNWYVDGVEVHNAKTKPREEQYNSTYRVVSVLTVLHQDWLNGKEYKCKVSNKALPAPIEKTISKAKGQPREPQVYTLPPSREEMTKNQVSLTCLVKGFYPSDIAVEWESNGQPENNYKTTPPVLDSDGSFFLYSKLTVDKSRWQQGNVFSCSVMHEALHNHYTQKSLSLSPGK
Test: SPR pH 7.4, antigen-Fc captured, Fab analyte
measured.metric: kon (M⁻¹ s⁻¹)
Value expressed in M⁻¹ s⁻¹; do not type the unit.

Reported kon for 66BLH (Fab, V domains shown, also called 18BLM Fab) VH: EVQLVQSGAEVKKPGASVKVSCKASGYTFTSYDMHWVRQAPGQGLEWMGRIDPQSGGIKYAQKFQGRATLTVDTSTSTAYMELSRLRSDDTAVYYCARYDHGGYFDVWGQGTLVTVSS VL: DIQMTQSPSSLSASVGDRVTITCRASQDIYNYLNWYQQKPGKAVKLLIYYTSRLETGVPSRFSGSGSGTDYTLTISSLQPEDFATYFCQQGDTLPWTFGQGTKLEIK was 2.05e+06

Reported kon for 54BLH (Fab, V domains shown, also called 06BLM Fab) VH: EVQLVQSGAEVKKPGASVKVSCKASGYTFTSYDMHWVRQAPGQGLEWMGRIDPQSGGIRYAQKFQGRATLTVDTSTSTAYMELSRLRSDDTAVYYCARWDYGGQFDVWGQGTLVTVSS VL: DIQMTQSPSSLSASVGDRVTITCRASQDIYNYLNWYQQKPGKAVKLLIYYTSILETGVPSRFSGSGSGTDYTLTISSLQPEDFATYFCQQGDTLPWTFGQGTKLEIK was 4.96e+06

Reported kon for 60BLH (Fab, V domains shown, also called 12BLM Fab) VH: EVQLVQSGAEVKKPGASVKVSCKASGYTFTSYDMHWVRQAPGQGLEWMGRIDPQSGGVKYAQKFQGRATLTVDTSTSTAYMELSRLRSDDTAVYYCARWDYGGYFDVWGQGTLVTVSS VL: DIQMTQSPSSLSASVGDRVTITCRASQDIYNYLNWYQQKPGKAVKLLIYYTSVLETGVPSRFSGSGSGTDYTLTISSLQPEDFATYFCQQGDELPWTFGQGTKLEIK was 7.91e+06
